- Tested on: Escherichia coli
- Protocol Notes: In vitro minimum inhibitory concentration required against Escherichia coli ATCC 25922 strain
- Assay type: functional
Measured Endpoint: MIC (µg/mL)
Give your result in µg/mL as a bare value.

[in] Entry under review: C[C@H]1C(S[C@H]2CCO[C@@H]2CN)=C(C(=O)O)N2C(=O)[C@H]([C@@H](C)O)C12 (stereo partly specified) . Reported MIC?
[out] 0.5

[in] State the recorded MIC for this entry: C[C@H]1C(S[C@H]2CCO[C@H]2CN)=C(C(=O)O)N2C(=O)[C@H]([C@@H](C)O)C12 (stereo partly specified)
[out] 0.5

[in] What value of MIC has been recorded for this entry: C[C@H]1C(S[C@@H]2COC[C@H]2CN)=C(C(=O)O)N2C(=O)[C@H]([C@@H](C)O)C12 (stereo partly specified)
[out] 0.25

[in] I am curious: what MIC value has been reported for C[C@H]1C(S[C@H]2COC[C@@H]2CN)=C(C(=O)O)N2C(=O)[C@H]([C@@H](C)O)C12 (stereo partly specified) ?
[out] 0.5

----------
Assignment: determine reported MIC for the given compounds.
- Test system: Escherichia coli
- Protocol Notes: In vitro minimum inhibitory concentration required against Escherichia coli GC 2205 strain
- Format: functional
Field format: number, assumed µg/mL, no unit text.

[in] Could you share which MIC value was measured for C[C@H]1C(S[C@H]2CCO[C@@H]2CN)=C(C(=O)O)N2C(=O)[C@H]([C@@H](C)O)C12 (some centres undefined) ?
[out] 0.25

[in] // lookup MIC for C[C@H]1C(S[C@@H]2CO[C@H](CN)C2)=C(C(=O)O)N2C(=O)[C@H]([C@@H](C)O)C12 (some centres undefined)
[out] 0.12

[in] Consider the compound C[C@H]1C(S[C@H]2CCO[C@H]2CN)=C(C(=O)O)N2C(=O)[C@H]([C@@H](C)O)C12 (some centres undefined) and give its measured MIC.
[out] 0.5

[in] What does the data say about its MIC? Entry: C[C@H]1C(S[C@H]2COC[C@@H]2CN)=C(C(=O)O)N2C(=O)[C@H]([C@@H](C)O)C12 (some centres undefined)
[out] 0.5

[in] Requested field: MIC. Item: C[C@H]1C(S[C@@H]2COC[C@H]2CN)=C(C(=O)O)N2C(=O)[C@H]([C@@H](C)O)C12 (some centres undefined)
[out] 0.25

----------
- System: Enterococcus faecium
- Protocol Notes: In vitro minimum inhibitory concentration required against Enterococcus faecium GC 1182 strain
- Format: functional
- Condition Label: Enterococcus faecium; read-out: MIC
Measured Endpoint: MIC

[in] Give the measured MIC of C[C@H]1C(S[C@H]2CO[C@H](CN)C2)=C(C(=O)O)N2C(=O)[C@H]([C@@H](C)O)C12 (stereo partly drawn) .
[out] > 128 mg/L

[in] # MIC lookup, item C[C@H]1C(S[C@H]2CCO[C@@H]2CN)=C(C(=O)O)N2C(=O)[C@H]([C@@H](C)O)C12 (stereo partly drawn)
[out] > 64 mg/L

[in] Suppose we examine the molecule C[C@H]1C(S[C@H]2CO[C@@H](CN)C2)=C(C(=O)O)N2C(=O)[C@H]([C@@H](C)O)C12 (stereo partly drawn) ; what MIC value has been reported?
[out] > 128 mg/L

[in] Please look up its MIC: C[C@H]1C(S[C@@H]2COC[C@H]2CN)=C(C(=O)O)N2C(=O)[C@H]([C@@H](C)O)C12 (stereo partly drawn)
[out] > 128 mg/L

[in] Need MIC of C[C@H]1C(S[C@H]2COC[C@@H]2CN)=C(C(=O)O)N2C(=O)[C@H]([C@@H](C)O)C12 (stereo partly drawn) , thanks.
[out] > 128 mg/L

[in] What does the record list as MIC for C[C@H]1C(S[C@H]2CCO[C@H]2CN)=C(C(=O)O)N2C(=O)[C@H]([C@@H](C)O)C12 (stereo partly drawn) ?
[out] 128 mg/L

[in] Fill in the blank: the reported MIC of C[C@H]1C(S[C@@H]2CO[C@H](CN)C2)=C(C(=O)O)N2C(=O)[C@H]([C@@H](C)O)C12 (stereo partly drawn) is ____.
[out] 128 mg/L

[in] Report MIC for C[C@@H](O)[C@H]1C(=O)N2C(C(=O)O)=C(S[C@@H]3CN[C@H](C(=O)N(C)C)C3)[C@H](C)[C@H]12 [MEROPENEM] please.
[out] > 128 mg/L

----------
- Test system: Escherichia coli
- Protocol Notes: In vitro minimum inhibitory concentration required against Escherichia coli ATCC 25922 strain
- Format: functional
What MIC was measured for each of the following?

[in] Value lookup for MIC; key = C[C@H]1C(S[C@H]2CO[C@H](CN)C2)=C(C(=O)O)N2C(=O)[C@H]([C@@H](C)O)C12 (some centres undefined)
[out] ≤ 0.06 µg/mL

[in] Return reported MIC; argument: C[C@@H](O)[C@H]1C(=O)N2C(C(=O)O)=C(S[C@@H]3CN[C@H](C(=O)N(C)C)C3)[C@H](C)[C@H]12 [MEROPENEM]
[out] ≤ 0.06 µg/mL

[in] Given the compound C[C@H]1C(S[C@@H]2CO[C@H](CN)C2)=C(C(=O)O)N2C(=O)[C@H]([C@@H](C)O)C12 (some centres undefined) , what is its reported MIC?
[out] ≤ 0.06 µg/mL

[in] I am curious: what MIC value has been reported for C[C@H]1C(S[C@H]2COC[C@H]2CN)=C(C(=O)O)N2C(=O)[C@H]([C@@H](C)O)C12 (some centres undefined) ?
[out] ≤ 0.06 µg/mL

----------
- Species on record: Sus scrofa
- Protocol Notes: Relative hydrolysis was measured by hog renal dehydropeptidase (DHP).
- Format: functional
Measured Endpoint: Relative hydrolysis
Field format: numeric only.

[in] What value of measured Relative hydrolysis is listed for C[C@H]1C(S[C@@H]2COC[C@H]2CN)=C(C(=O)O)N2C(=O)[C@H]([C@@H](C)O)C12 (stereo partly drawn) ?
[out] 39

[in] Any idea what its Relative hydrolysis is? The molecule is C[C@H]1C(S[C@H]2COC[C@@H]2CN)=C(C(=O)O)N2C(=O)[C@H]([C@@H](C)O)C12 (stereo partly drawn)
[out] 37

[in] // query Relative hydrolysis value for entry C[C@H]1C(S[C@H]2CO[C@@H](CN)C2)=C(C(=O)O)N2C(=O)[C@H]([C@@H](C)O)C12 (stereo partly drawn)
[out] 10

[in] Reported Relative hydrolysis for C[C@@H](O)[C@H]1C(=O)N2C(C(=O)O)=C(SCCNC=N)C[C@H]12 [IMIPENEM ANHYDROUS] : what is it?
[out] 100

[in] Item C[C@H]1C(S[C@@H]2CO[C@H](CN)C2)=C(C(=O)O)N2C(=O)[C@H]([C@@H](C)O)C12 (stereo partly drawn) has what recorded Relative hydrolysis?
[out] 7.3

[in] Returns the measured Relative hydrolysis for the input molecule. Input: "C[C@@H](O)[C@H]1C(=O)N2C(C(=O)O)=C(S[C@@H]3CCO[C@@H]3CN)[C@H](C)[C@H]12"
[out] 8.5

[in] Look up Relative hydrolysis: C[C@@H](O)[C@H]1C(=O)N2C(C(=O)O)=C(S[C@@H]3CN[C@H](C(=O)N(C)C)C3)[C@H](C)[C@H]12 [MEROPENEM]
[out] 28

[in] Report Relative hydrolysis for C[C@H]1C(S[C@H]2CCO[C@@H]2CN)=C(C(=O)O)N2C(=O)[C@H]([C@@H](C)O)C12 (stereo partly drawn) please.
[out] 18

[in] Need Relative hydrolysis of C[C@H]1C(S[C@H]2CCO[C@H]2CN)=C(C(=O)O)N2C(=O)[C@H]([C@@H](C)O)C12 (stereo partly drawn) , thanks.
[out] 4.5

[in] I would be grateful if you could share the reported Relative hydrolysis for C[C@H]1C(SC2COC(CN)C2)=C(C(=O)O)N2C(=O)[C@H]([C@@H](C)O)C12 (stereo in doubt; 3b) .
[out] 10

[in] Could you share which Relative hydrolysis value was measured for C[C@H]1C(SC2COC(CN)C2)=C(C(=O)O)N2C(=O)[C@H]([C@@H](C)O)C12 (stereo in doubt; 3a) ?
[out] 19

----------
- System: Citrobacter freundii
- Protocol Notes: In vitro minimum inhibitory concentration required against Citrobacter freundii GC 2211 strain
- Type: functional
Measured Endpoint: MIC (µg/mL)
Value expressed in µg/mL; do not type the unit.

[in] Could you tell me which MIC is on file for C[C@H]1C(S[C@H]2CCO[C@H]2CN)=C(C(=O)O)N2C(=O)[C@H]([C@@H](C)O)C12 (some centres undefined) ?
[out] 0.5

[in] Given the entry C[C@H]1C(S[C@H]2CO[C@@H](CN)C2)=C(C(=O)O)N2C(=O)[C@H]([C@@H](C)O)C12 (some centres undefined) , report its measured MIC.
[out] 0.12

[in] Given the molecule C[C@H]1C(S[C@H]2COC[C@@H]2CN)=C(C(=O)O)N2C(=O)[C@H]([C@@H](C)O)C12 (some centres undefined) , what is its reported MIC?
[out] 1

[in] Quick one: MIC for C[C@H]1C(S[C@H]2CCO[C@@H]2CN)=C(C(=O)O)N2C(=O)[C@H]([C@@H](C)O)C12 (some centres undefined) ?
[out] 1

[in] Please give the measured MIC for this molecule: C[C@H]1C(S[C@@H]2CO[C@H](CN)C2)=C(C(=O)O)N2C(=O)[C@H]([C@@H](C)O)C12 (some centres undefined)
[out] 0.12

[in] Any idea what MIC was measured for C[C@H]1C(S[C@@H]2COC[C@H]2CN)=C(C(=O)O)N2C(=O)[C@H]([C@@H](C)O)C12 (some centres undefined) ?
[out] 1

Every entry's value here was drawn from ChEMBL document CHEMBL1151058.
